Molecular target: 5-hydroxytryptamine receptor 5A (Homo sapiens); note: assay procedure not described here
Sequence (P47898 whole entry): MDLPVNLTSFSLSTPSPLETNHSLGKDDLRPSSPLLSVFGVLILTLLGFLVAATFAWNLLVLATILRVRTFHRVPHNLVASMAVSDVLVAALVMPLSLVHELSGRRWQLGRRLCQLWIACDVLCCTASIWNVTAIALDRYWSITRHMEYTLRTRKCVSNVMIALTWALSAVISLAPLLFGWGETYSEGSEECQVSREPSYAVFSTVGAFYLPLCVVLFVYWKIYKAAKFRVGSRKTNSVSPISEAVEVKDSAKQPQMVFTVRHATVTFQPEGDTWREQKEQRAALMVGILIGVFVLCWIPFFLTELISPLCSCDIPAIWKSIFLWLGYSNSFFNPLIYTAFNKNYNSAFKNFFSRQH

molecule | measurement units | lt gt eq | AC50
CCN(CC)CCNC(=O)c1c(C)[nH]c(/C=C2\C(=O)Nc3ccc(F)cc32)c1C [SUNITINIB] | µM | = | 10
OC1(c2ccc(Cl)cc2)c2ccccc2C2=NCCN21 (stereo not given) [MAZINDOL] | µM | > | 10
CN1CCN(C2=Nc3ccccc3Oc3ccc(Cl)cc32)CC1 [LOXAPINE] | µM | = | 1.04
N[C@@H](CC(=O)N1CCn2c(nnc2C(F)(F)F)C1)Cc1cc(F)c(F)cc1F [SITAGLIPTIN] | µM | > | 10
Cc1onc(-c2ccccc2)c1-c1ccc(S(N)(=O)=O)cc1 [VALDECOXIB] | µM | > | 10
